study.target: T1, 4H3462-bA
T1 chain: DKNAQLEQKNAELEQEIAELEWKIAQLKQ
protocol.summary: two-hybrid library CCNG1;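 further: natural log of median RNA to DNA barcode read ratio; higher means stronger binding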
quantity.name: interaction score
Keep the answer to the number alone.

Task: What interaction score value was documented for this binder, DKNAQLEQKNAELEQEIAELEWKIAQLKQ [4H3462-bA] ?
Result: 0.257

Task: Report interaction score for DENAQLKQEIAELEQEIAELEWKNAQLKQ [4H1544-bA] please.
Result: 0.455
